# Tested on: Mouse ACVR2A (mouse, UniProt P27038 20-135, limits assumed); note: test concentration or dose not given here
# Sequence (P27038 20-135 limits assumed): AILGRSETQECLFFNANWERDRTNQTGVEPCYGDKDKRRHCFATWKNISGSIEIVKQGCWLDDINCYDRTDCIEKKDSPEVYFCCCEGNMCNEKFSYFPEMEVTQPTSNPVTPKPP
# Test summary: ELISA
# Procedure: The binding of ACVR2A-specific monoclonal antibodies to human ACVR2A, mouse ACVR2A, biotinylated goat anti-human kappa light chain (positive control) and human Fc (negative control) were determined by ELISA.
Consider the following binders and their measured optical density readings.

# Binder, Unit, optical density
records = [
    ("367_D10 (antibody, V domains shown) VH: EVQLLESGGGLVQPGGSLRLSCAASGFTFDSYGMNWVRQAPGKGLEWVSNINYNGGYTSYADSVKGRFTISRDNSKNTLYLQMNSLRAEDTAVYYCARSANWHDTALDYWGQGTLVTVSS VL: DIQMTQSPSSLSASVGDRVTITCRASQSIISYLNWYQQKPGKAPKLVIYAATSRASGVPSRFSGSGSGTDFTLTISSLQPEDFATYYCQQSYDTPLTFGGGTKVEIK", "OD", 2.67),
    ("367_G05 (antibody, V domains shown) VH: EVQLLESGGGLVQPGGSLRLSCAASGFTFSDYGMNWVRQAPGKGLEWVANINYNGGYTSYADSVKGRFTISRDNSKNTLYLQMNSLRAEDTAVYYCARSANWHDTALDYWGQGTLVTVSS VL: DIQMTQSPSSLSASVGDRVTITCRASQSIVSYLNWYQQKPGKAPKLVIYAATSLASGVPSRFSGSGSGTDFTLTISSLQPEDFATYYCQQSYDTPLTFGGGTKVEIK", "OD", 2.71),
    ("369_C03 (antibody, V domains shown) VH: EVQLLESGGGLVQPGGSLRLSCAASGFTFSSYGMNWVRQAPGKGLEWVSNINYNGGYKSYADSVKGRFTISRDNSKNTLYLQMNSLRAEDTAVYYCARSANWHDTALDYWGQGTLVTVSS VL: DIQMTQSPSSLSASVGDRVTITCRASQSILTYLNWYQQKPGKAPKLVIYAATSRASGVPSRFSGSGSGTDFTLTISSLQPEDFATYYCQQSYDSPLTFGGGTKVEIK", "OD", 3.65),
    ("369_G11 (antibody, V domains shown) VH: EVQLLESGGGLVQPGGSLRLSCAASGFTFSSYSMNWVRQAPGKGLEWVANINYNSGYKGYADSVKGRFTISRDNSKNTLYLQMNSLRAEDTAVYYCARSANWHDTALDYWGQGTLVTVSS VL: DIQMTQSPSSLSASVGDRVTITCRASQSILTYLNWYQQKPGKAPKLLIYAATSLASGVPSRFSGSGSGTDFTLTISSLQPEDFATYYCQQSYESPLTFGGGTKVEIK", "OD", 3.06),
    ("370_G02 (antibody, V domains shown) VH: EVQLLESGGGLVQPGGSLRLSCAASGFTFSDYSMNWVRQAPGKGLEWVANINYNGGYKGYADSVKGRFTISRDNSKNTLYLQMNSLRAEDTAVYYCARSANWHDTALDYWGQGTLVTVSS VL: DIQMTQSPSSLSASVGDRVTITCRASQSIVSYLNWYQQKPGKAPKLLIYAATSRHSGVPSRFSGSGSGTDFTLTISSLQPEDFATYYCQQSYDSPLTFGGGTKVEIK", "OD", 3.22),
]
